- MEASUREMENT_TARGET: Rap guanine nucleotide exchange factor 3 (Homo sapiens)
- PROTOCOL_DESCRIPTION: Counterscreen qHTS for agonist of cAMP-regulated guanine nucleotide exchange factor 3 (EPAC1) (AID 1645889); also: % of control where 0% means no effect; nearly all actives have a fitted effect of over 40% in size
- STATED_CONDITIONS: EPAC1 Rap1B-BODIPY-GDP exchange, fluorescence; series mostly up to 154 µM
Results filed as inconclusive are left out. The source made the active and inactive calls. Calls follow the shape of the dose curve; as a rule, active = well fitted activation curve with a large enough effect; inconclusive = small, poorly fitted or top-dose-only effect, or another doubt; inactive = no such curve, though single readings can be large or run the other way.

COMPOUND	MEASUREMENT_TARGET	activation
O=C(Nc1ccc2nc3n(c(=O)c2c1)CCCCC3)c1c(F)ccc([N+](=O)[O-])c1F	Rap guanine nucleotide exchange factor 3 (Homo sapiens)	inactive
N#C/C(=C\c1ccc(OCc2ccc(C(=O)O)cc2)cc1)C(=O)N1CCOCC1	Rap guanine nucleotide exchange factor 3 (Homo sapiens)	inactive
COc1cc2c(cc1OC)C(COc1ccc(F)cc1)N(C(C)=O)CC2 (stereo not given)	Rap guanine nucleotide exchange factor 3 (Homo sapiens)	inactive
Cc1nn(-c2ccccc2)c(C)c1-c1cc(C(=O)N/N=C/c2ccc(O)cc2)[nH]n1	Rap guanine nucleotide exchange factor 3 (Homo sapiens)	9.11% [at 30.8 µM] (inactive)
O=C1c2ccccc2C(c2nnnn2Cc2ccccc2)N1CCc1c[nH]c2ccccc12 (stereo not given)	Rap guanine nucleotide exchange factor 3 (Homo sapiens)	inactive

###

- Tested on: DIV14
- PROTOCOL_DESCRIPTION: qHTS profiling for inhibitors of Plasmodium falciparum proliferation (AID 504749); also: nearly all actives have a fitted effect of over 60% in size
- STATED_CONDITIONS: P. falciparum in erythrocytes, SYBR Green DNA, 72 h; series mostly up to 28.7 µM
Inconclusive results are not listed. Calls of active or inactive are those of the source. The call rests on the fitted dose curve; in most records, active means well fitted inhibition curve with a large enough effect; inconclusive means small, poorly fitted or top-dose-only effect; inactive means flat fitted curve, though single readings scatter.
Labels: active, inactive

COMPOUND	MEASUREMENT_TARGET	GROUP
Cc1cc(CC(C)CC(C)(C)C)n(O)c(=O)c1 (configuration not stated)	DIV14	active
NC1=NC(S)C2N=CN=C2N1 (configuration not stated)	DIV14	inactive
CC(=O)O[C@@]12CO[C@@H]1C[C@H](O)[C@@]1(C)C(=O)[C@H](O)C3=C(C)[C@@H](OC(=O)C(O)[C@@H](NC(=O)OC(C)(C)C)c4ccccc4)C[C@@](O)([C@@H](OC(=O)c4ccccc4)[C@H]21)C3(C)C (some centres not stated)	DIV14	active
C=C[C@]1(C)C[C@@H](OC(=O)CSCCN(CC)CC)[C@]2(C)C(C)CC[C@]3(CCC(=O)[C@H]32)[C@@H](C)[C@@H]1O (some centres not stated)	DIV14	active
CO[C@@H]1[C@@H](OC2OC(C)C(OC3CC(C)(O)C(OC(=O)CC(C)C)C(C)O3)C(N(C)C)C2O)[C@@H](CC=O)C[C@@H](C)C(=O)/C=C\C2O[C@H]2C[C@@H](C)OC(=O)C[C@H]1OC(C)=O (some centres not stated)	DIV14	active
CC(C)CN(C[C@@H](OP(=O)(O)O)[C@H](Cc1ccccc1)NC(=O)O[C@@H]1CCOC1)S(=O)(=O)c1ccc(N)cc1	DIV14	inactive
C1OCOCO1	DIV14	inactive

###

- MEASUREMENT_TARGET: Rap guanine nucleotide exchange factor 3 (Homo sapiens)
- PROTOCOL_DESCRIPTION: Counterscreen qHTS for antagonist of cAMP-regulated guanine nucleotide exchange factor 3 (EPAC1) (AID 1645888);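 also: fluorescence loss as bound BODIPY-GDP is released from Rap1B; % of control where 0% means no effect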
- STATED_CONDITIONS: Rap1B-BODIPY-GDP nucleotide exchange, fluorescence; series mostly up to 154 µM
Inconclusive results are not listed. Calls of active or inactive are those of the source. Calls follow the shape of the dose curve; as a rule, active = well fitted inhibition curve with a large enough effect; inconclusive = small, poorly fitted or top-dose-only effect; inactive = no such curve, though single readings can be large or run the other way.

SMILES_RECORD	MEASUREMENT_TARGET	activity change, negative = inhibition
O=C(C1CC1)N1CCCC(c2ccc(Cl)cc2)=N1	Rap guanine nucleotide exchange factor 3 (Homo sapiens)	-19% [at 30.8 µM] (inactive)
COC(=O)COc1ccc(C(c2c(C)[nH][nH]c2=O)c2c(C)[nH][nH]c2=O)cc1	Rap guanine nucleotide exchange factor 3 (Homo sapiens)	inactive
Cc1cccc([C@H]2[C@@H]3C=CCC[C@@H]3C(=O)N2Cc2ccccc2)c1	Rap guanine nucleotide exchange factor 3 (Homo sapiens)	inactive
CCc1nc(Oc2cccc(F)c2)c2oc3ccccc3c2n1	Rap guanine nucleotide exchange factor 3 (Homo sapiens)	inactive
O=C1[C@H]2CCC=C[C@H]2[C@H](c2ccccc2Br)N1Cc1ccccc1	Rap guanine nucleotide exchange factor 3 (Homo sapiens)	inactive
COc1cccc(-n2ccn(CC(=O)NCc3ccc(C)cc3)c(=O)c2=O)c1	Rap guanine nucleotide exchange factor 3 (Homo sapiens)	inactive
O=C(Nc1nc2ccccc2[nH]1)C1CCN(S(=O)(=O)c2cccs2)CC1	Rap guanine nucleotide exchange factor 3 (Homo sapiens)	inactive
O=C1NC(=S)S/C1=C\c1coc2ccc(O)cc2c1=O	Rap guanine nucleotide exchange factor 3 (Homo sapiens)	-13.4% [at 30.8 µM] (inactive)
c1cc(-c2cc3nc(NC4CCCCC4)ccn3n2)ccc1OCCN1CCOCC1	Rap guanine nucleotide exchange factor 3 (Homo sapiens)	inactive
COc1cccc2c1Oc1ncccc1N(C(=O)CCC(=O)NCc1cccc(C)c1)C2	Rap guanine nucleotide exchange factor 3 (Homo sapiens)	inactive

###

- MEASUREMENT_TARGET: Dual specificity protein kinase CLK4 (Homo sapiens) (UniProt Q9HAZ1)
- Sequence (Q9HAZ1 whole entry, looked up): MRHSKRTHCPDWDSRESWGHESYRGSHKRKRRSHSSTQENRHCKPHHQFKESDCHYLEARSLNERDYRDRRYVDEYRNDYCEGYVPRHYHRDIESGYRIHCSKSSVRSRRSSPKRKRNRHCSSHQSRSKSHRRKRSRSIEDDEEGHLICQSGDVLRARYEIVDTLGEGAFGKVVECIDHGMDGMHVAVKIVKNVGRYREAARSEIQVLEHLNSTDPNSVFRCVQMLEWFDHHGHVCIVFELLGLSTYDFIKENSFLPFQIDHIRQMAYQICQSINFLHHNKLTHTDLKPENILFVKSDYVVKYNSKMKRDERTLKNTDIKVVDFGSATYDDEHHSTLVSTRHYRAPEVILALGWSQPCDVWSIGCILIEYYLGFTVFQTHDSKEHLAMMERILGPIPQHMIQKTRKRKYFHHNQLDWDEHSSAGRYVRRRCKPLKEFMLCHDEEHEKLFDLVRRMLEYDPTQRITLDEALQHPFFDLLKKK
- PROTOCOL_DESCRIPTION: qHTS Assay for Inhibitors of CDC-like Kinase 4 (ADP-FP Assay) (AID 1795); also: nearly all actives have a fitted effect of over 60% in size
- STATED_CONDITIONS: Transcreener ADP fluorescence polarization; series mostly up to 50 µM
Records with an inconclusive call do not appear. Calls of active or inactive are those of the source. Calls come from the whole dose curve; as a rule, active = well fitted inhibition curve with a large enough effect; inconclusive = small, poorly fitted or top-dose-only effect; inactive = flat fitted curve, though single readings scatter.
Outcomes: active, inactive

SMILES_RECORD	GROUP
c1ccc(Nc2nc(-c3cccnc3)nc3ccccc23)cc1	active
O=c1c(CCc2ccccc2)nc2cnc(N3CCOCC3)nc2n1-c1ccccc1	inactive
COc1ccc(Oc2ncc3nc(-c4cccc(C#N)c4)c(=O)n(CCC#N)c3n2)cc1	inactive
CN(Cc1ccco1)c1nc(-c2cccnc2)nc2ccccc12	active
CCNc1ncc2nc(CCc3ccccc3)c(=O)n(Cc3cccc(OC)c3)c2n1	inactive
COc1ccc(CNc2nc(-c3cccnc3)nc3ccccc23)c(OC)c1	inactive
COc1ccccc1CNc1cc(-c2ccccc2CN(C)C)ncn1	inactive
c1ccc(CNc2nc(-c3cccnc3)nc3ccccc23)cc1	active
O=c1c(CCc2ccccc2)nc2cncnc2n1Cc1ccccc1	inactive
COc1ccccc1-c1ccc2ncnc(N3CCNCC3)c2c1	active
COc1ccc(-c2nc3cnc(N4CCOCC4)nc3n(-c3ccc(OC)cc3)c2=O)cc1	inactive
COc1ccc2[nH]cc(CCNc3ncncc3-c3ccccc3Cl)c2c1	active
COc1ccc(CNc2ncncc2-c2ccccc2OC)c(OC)c1	inactive
COc1ccccc1CNc1nc(-c2ccoc2)nc2ccccc12	inactive
COc1ccccc1CNc1nc(-c2ccc(C(=O)N(C)C)cc2)nc2ccccc12	inactive
COc1ccc2[nH]cc(CCNc3ncncc3-c3ccccc3C(F)(F)F)c2c1	inactive
COc1ccc2[nH]cc(CCNc3nc(-c4c(C)noc4C)nc4ccccc34)c2c1	inactive
COc1ccc(Oc2ncc3nc(-c4ccc(F)cc4)c(=O)n(CCC#N)c3n2)cc1	inactive
COCCn1c(=O)c(-c2ccc(F)cc2)nc2cnc(Nc3cccc(OC)c3)nc21	inactive
Cn1cc(-c2nc3cnc(N4CCNCC4)nc3n(CCc3ccccc3)c2=O)c2ccccc21	inactive
CN(C)c1ncc2nc(CCc3ccccc3)c(=O)n(CCc3ccccc3)c2n1	inactive
COc1ccccc1-c1ccc2ncnc(N3CCOCC3)c2c1	active

###

- MEASUREMENT_TARGET: Rap guanine nucleotide exchange factor 3 (Homo sapiens)
- PROTOCOL_DESCRIPTION: Confirmatory qHTS for agonist of cAMP-regulated guanine nucleotide exchange factor 3 (EPAC1) (AID 1645881); also: nearly all actives have a fitted effect of over 75% in size;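 as to activation: EPAC1 catalysed release of BODIPY-GDP from Rap1B seen as fluorescence loss; 100% = effect of cAMP agonist control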
- STATED_CONDITIONS: EPAC1 Rap1B BODIPY-GDP exchange fluorescence; series mostly up to 154 µM
Inconclusive results are not listed. Active and inactive are the calls of the source. The call rests on the fitted dose curve; in most records, active means well fitted activation curve with a large enough effect; inconclusive means small, poorly fitted or top-dose-only effect; inactive means no such curve, though single readings can be large or run the other way.
Classes used: active, inactive

COMPOUND	GROUP
COc1ccc(/C=N\Nc2ccc([N+](=O)[O-])cc2)c(C(=O)O)c1OC	inactive
CCn1c(=O)c(C(=O)NNS(=O)(=O)c2ccc(C)cc2)c(O)c2ccccc21	inactive
C[C@@H]1COC(=O)[C@H](NC(=O)OCC2c3ccccc3-c3ccccc32)C/C=C\C[C@@H](CC(=O)N[C@H](CO)Cc2ccccc2)C(=O)N1	inactive
CCC(=O)N1N=C(c2cccs2)CC1c1ccc(C)cc1 (stereo not given)	inactive
Cc1cccc(N(C)S(=O)(=O)c2c[nH]c3ccc([N+](=O)[O-])cc23)c1	inactive
COc1cc(OC)c(-c2c3cc(O)c(=O)cc-3oc3cc(O)c(O)cc23)cc1OC	active
CCn1cc(C=C2C(=O)c3ccccc3C2=O)c2ccccc21	inactive
N#C/C(=C\c1ccc(-c2ccccc2C(=O)O)o1)c1nc2ccccc2[nH]1	inactive
O=S(=O)(Nc1ccccc1-c1ccccc1)c1ccccc1	inactive
CSCCC(NS(=O)(=O)c1ccc2c(c1)oc(=O)n2C)C(=O)NC1CCCCC1 (stereo not given)	inactive

Data origin, for the record: PubChem BioAssay (NCATS)
